Hello, the source for this data is paper PMC12903857, in case you need it.

target: 14-3-3σ/C-RAF259 (Homo sapiens, UniProt P31947); test: Intact mass spectrometry assay with C-RAF259 phospho-peptide; type: binding; design: full-length for mass spectrometry and fluorescence anisotropy assays; made in house; host or cells: E. coli Rosetta 2(DE3)pLysS (14-3-3σ); peptides from Elim Biopharmaceuticals; settings: 1 μM compound, 100 nM 14-3-3σ, 18 µM peptide, 16 h
Sequence (P31947 whole entry, other chains not shown): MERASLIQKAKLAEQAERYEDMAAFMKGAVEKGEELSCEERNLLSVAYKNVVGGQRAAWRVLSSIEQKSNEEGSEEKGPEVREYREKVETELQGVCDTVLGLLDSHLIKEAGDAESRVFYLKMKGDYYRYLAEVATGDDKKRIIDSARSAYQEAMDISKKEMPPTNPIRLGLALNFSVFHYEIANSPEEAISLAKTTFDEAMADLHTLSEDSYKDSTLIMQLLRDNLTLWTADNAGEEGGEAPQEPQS
observed.property: % bound, C-RAF259 (11mer), 16h (%)

# annotated cases, reported % bound, C-RAF259 (11mer), 16h shown
> print(dat)
                               query.smiles  experimental.result
1  COc1ccc(S(=O)(=O)N2CCC(CNC(=O)CCl)CC2)cc1F                 31.8
2  O=C(CCl)NCC1CCN(S(=O)(=O)Cc2cccc(F)c2)CC1                  5.6

[1] O=C(CCl)N1CC2(CCN(S(=O)(=O)c3ccc(Br)c(F)c3)CC2)C1
[2] O=C(CCl)NCC1CCN(S(=O)(=O)c2ccccc2)CC1
Exercise: // which entry reports the smaller % bound, C-RAF259 (11mer), 16h, 1 or 2 ? Identify your pick by its label.
Solution: 2
(2: 5.7%, 1: 53.8%)
